# TARGET DESC: Human Siglec-9-Fc (recombinant human Siglec-9 extracellular domain Q18-G348 fused to human IgG1 Fc) (human)
# Sequence (chain, as listed by the source limits assumed): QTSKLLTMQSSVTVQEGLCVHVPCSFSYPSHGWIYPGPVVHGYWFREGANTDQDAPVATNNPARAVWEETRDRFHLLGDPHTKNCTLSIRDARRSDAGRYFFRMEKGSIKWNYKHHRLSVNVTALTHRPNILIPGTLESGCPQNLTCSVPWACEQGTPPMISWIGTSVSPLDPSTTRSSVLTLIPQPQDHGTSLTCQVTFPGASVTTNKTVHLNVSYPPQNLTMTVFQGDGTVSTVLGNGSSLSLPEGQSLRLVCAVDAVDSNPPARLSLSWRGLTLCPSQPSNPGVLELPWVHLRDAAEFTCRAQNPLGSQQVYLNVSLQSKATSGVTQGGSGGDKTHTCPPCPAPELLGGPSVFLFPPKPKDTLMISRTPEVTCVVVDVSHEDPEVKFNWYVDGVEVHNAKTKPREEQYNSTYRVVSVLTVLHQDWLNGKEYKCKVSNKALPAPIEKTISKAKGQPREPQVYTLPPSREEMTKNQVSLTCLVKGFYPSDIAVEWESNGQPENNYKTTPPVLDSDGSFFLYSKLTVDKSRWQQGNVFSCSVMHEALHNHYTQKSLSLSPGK
# ASSAY REMARKS: BLI binning, hSiglec-9-Fc on AHC sensor; competitor bound first (row): 13J19
# Procedure: Epitopic diversity of functional antibodies was further assessed by antibody cross-blocking experiments, performed on a ForteBio Octet Red384 system. All samples were prepared in black 384-well flat bottom plates from (Greiner, Cat. #781209) with a working volume of 120 uL and diluted in kinetics buffer (1×DPBS containing 0.1% bovine serum albumin, 0.05% sodium azide, and 0.02% Tween®20). […] Binning results were calculated using ForteBio Data Analysis HT software. […]
REPORTED METRIC: maximum binding nm shift (nm)
Give your result in nm as a bare value.

Some binders with recorded maximum binding nm shift:
* 13O18 (antibody, V domains shown) VH: EVQLQQSGPELVRPGASVKMSCKASGYTFTDYNMHWVKQSHGKSLEWIGYINPNNGGTTYNQNFKGKATLTVNKSSSTAYMELRSLTSEDSAVYYCAREGYGNYPFYWGQGTTLTVSS VL: DIVLTQSPASLAVSLGQRVTISCRASESVEYYGTSLMQWYQQKPGQPPKLLIYAASNVESGVPARFSGSGSGTDFSLNIHPVEEDDIAMFFCQQDRKVPYTFGGGTKLEIK | 0.135
* 12P18 (antibody, V domains shown) VH: QVQLQQSGAELVRPGASVTLSCKASGYTFTDYEMHWVKQTPVHGLEWIGAIDPEAGGTAYNRKFKGKAILTADKSSSTAYMELRSLTSEDSAVYYCTNLGRDYWGQGTTLTVSS VL: DIVMSQSPSSLAVSVGEKVTMSCKSSQSLLYSSTQKNYLAWYQQKPGQSPKRLIYWASTRESGVPDRFTGSGSGTDFTLTISSVKAEDLAVYYCQQYYSYWTFGGGTKLEIK | 0.324

Moving on to another binder below.
maximum binding nm shift for 12G23 (antibody, V domains shown) VH: EVQLQQSGPELVRPGASVKMSCKASGYTFTDYNMHWVKQSHGKSLEWIGYINPNNGGTSYNQKFKGKATLTVNKSSSTAYMELRSLTSDDSAVYYCAREGYGNYPFYWGQGTTLTVSS VL: DIVLTQSPASLAVSLGQRVTISCRGSESVEYYGTSLMQWYQQKPGQPPKLLIYAASNVESGVPARFSGSGSGTDFSLNIHPVEEDDIAMYFCQQDRKVPYTFGGGTKLEIK ? 0.139
